Ends that are not written are not given here.
attributeMeasured: affinity (summary, both receptor states) (nM)

[
  {
    "substance": "VTHRLAGLLSRSGGVVKNNFVPTDVGPWSF-NH2 [ssCGRP(8-37)]",
    "attributeMeasured": "affinity (summary, both receptor states)",
    "outputUnit": "nM",
    "obsValue": 0.5
  }
]

* * *

# measuredOn: CGRP receptor (Nluc-CLR:RAMP1) (Homo sapiens, UniProt O60894+Q16602)
# Construct: N-terminally Nanoluciferase (NLuc)-tagged CLR (pcDNA3.1(+)sec/NanoLuc-GSGIS-CLR.23-461); Wild-type CLR and RAMP expression plasmids were obtained from cDNA.org; sec (vector secretion signal before NanoLuc) (N); expressed in transfected cells; host or cells: COS-7 cells, membrane preparation
# measurementProtocol: nanoBRET equilibrium competition binding, Nluc-CLR:RAMP1 membranes
# conditionSummary: G protein coupled state (30 μM sumo-miniGs), 3 nM AM2/IMD(8-47)-TAMRA probe, 8 h, room temperature, Cheng-Prusoff, mean ± SEM, n=3; read-out: Ki + mGs
Ends that are not written are not given here.

[
  {
    "substance": "VTHRLAGLLSRSGGVVKNNFVPTDVGPWSF-NH2 [ssCGRP(8-37)]",
    "Ki": "0.6 nM"
  }
]

These measurements were taken from paper PMC12004451.
